test system: MCF-7 HER2-18; experiment: MTT assay, MCF-7 HER2-18 cell line; format: cell-based, human; settings: Homo sapiens; MCF-7 Her2-18, mean of three independent MTT experiments; read-out: AF IC50
REPORTED_METRIC: pIC50
Reminder that pIC50 is minus the log10 of a molar concentration.

Request: // returns reported pIC50 for input "Cc1c(F)c(N)c2c(=O)cc(-c3ccc(N)c(F)c3)oc2c1F"
Result: 7.70

* * *

test system: Hs578t; experiment: MTT assay, Hs578t breast cancer cell line; format: cell-based, human; settings: Homo sapiens, Hs-578T; Hs578t, mean of three independent MTT experiments; read-out: AF IC50
REPORTED_METRIC: IC50 (µM)
Kindly answer with a numeric value in µM, unit omitted.

Request: // returns reported IC50 for input Cc1c(F)c(N)c2c(=O)cc(-c3ccc(N)c(F)c3)oc2c1F [AF, aminoflavone]
Result: 20

Origin of the recorded values: patent US20100016421A1
